The entries below are paired with their reported GLP EC50.
assayed-target: T1, full-length human GLP-1R (GenBank NM_002062) with an N-terminal FLAG tag on HEK-293T cells (human), P43220
T1 chain: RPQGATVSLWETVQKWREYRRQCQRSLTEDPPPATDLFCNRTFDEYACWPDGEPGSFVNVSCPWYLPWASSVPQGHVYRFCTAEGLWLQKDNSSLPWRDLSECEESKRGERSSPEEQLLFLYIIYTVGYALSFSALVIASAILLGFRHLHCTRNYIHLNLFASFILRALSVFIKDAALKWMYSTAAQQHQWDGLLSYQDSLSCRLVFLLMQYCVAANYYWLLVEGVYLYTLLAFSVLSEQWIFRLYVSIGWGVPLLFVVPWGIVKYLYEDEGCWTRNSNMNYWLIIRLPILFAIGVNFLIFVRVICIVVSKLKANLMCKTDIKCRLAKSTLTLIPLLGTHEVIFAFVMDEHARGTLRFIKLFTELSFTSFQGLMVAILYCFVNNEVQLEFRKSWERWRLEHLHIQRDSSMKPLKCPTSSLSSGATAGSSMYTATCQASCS
procedure-text: cell-based or functional assay
Numbered stars: 1 amine (or outer) side, 2 acyl side, 3 side chain; on linkers, the order of the positions; unused ones are H or OH. Square brackets hold non-standard residues; d marks the D form. Primed or numbered codes have the meaning given here. Side chains are listed from the residue outwards. Ends that are not written are not given here. * marks the point of attachment. C20 diacid = O=C(O)CCCCCCCCCCCCCCCCCCC(=O)*; C16 diacid = O=C(O)CCCCCCCCCCCCCCC(=O)*; γGlu = O=C(O)[C@H](CCC(=O)[*:2])N[*:1]; Iva = CC[C@](C)(N)C(=O)O; PEG3′ = not defined here; Aib = CC(C)(N)C(=O)O
Respond numerically; units are nM and should not be typed.

- Y[Aib]EGTFISDYSIALDR[Aib]HQ[Aib]NFVNW[Iva]LAQRPK([Gly-Gly-Gly-Gly-Gly-γGlu-C20 diacid])SGAPPPS (ends and bridges not checked) [Compound No. 443]: 977

Then there is this binder:
Data request, read-out GLP EC50, for Y[Aib]EGTFISDYSIALDR[Aib]HQ[Aib]NFVNW[Iva]LAQRK([PEG3′-PEG3′-C16 diacid])SSGAPPPSR (ends and bridges not checked) [Compound No 911] 93.3
